Recorded Ratio IC50 values for a group of compounds are listed next.
Test: Selectivity index, ratio of IC50 for equine serum BuChE to IC50 for electric eel AChE

Some solved cases for reference:
*Q* For the compound Cc1ccc(N2CCN(c3ccc(C=C4C(=O)c5ccccc5C4=O)cc3)CC2)c(C)c1 , what Ratio IC50 is on record?
*A* 1.39

*Q* Which Ratio IC50 reading was recorded for the compound O=C1C(=Cc2ccc(N3CCN(C(=O)c4ccco4)CC3)cc2)C(=O)c2ccccc21 ?
*A* 54.2

New cases:
*Q* Return reported Ratio IC50; argument: O=C1C(=Cc2ccc(N3CCN(c4ccccc4)CC3)cc2)C(=O)c2ccccc21
*A* 1.9

*Q* Request the reported Ratio IC50 associated with Cc1ccc(N2CCN(c3ccc(C=C4C(=O)c5ccccc5C4=O)cc3)CC2)cc1
*A* 1.5

*Q* I have this compound here, O=C1C(=Cc2ccc(N3CCN(c4ccc(C(F)(F)F)cc4)CC3)cc2)C(=O)c2ccccc21 , and I need its recorded Ratio IC50.
*A* 15.1

*Q* May I ask what Ratio IC50 has been recorded for O=C1C(=Cc2ccc(N3CCN(c4ncccn4)CC3)cc2)C(=O)c2ccccc21 ?
*A* 77.1

Recorded values, source ChEMBL document CHEMBL3817760.
